Target: human (Homo sapiens) erythrocyte AChE (HsAChE) (Homo sapiens, UniProt P22303)
Construct: human (Homo sapiens) erythrocyte AChE (HsAChE)
Sequence (P22303 32-617 isoform P22303-2 limits assumed): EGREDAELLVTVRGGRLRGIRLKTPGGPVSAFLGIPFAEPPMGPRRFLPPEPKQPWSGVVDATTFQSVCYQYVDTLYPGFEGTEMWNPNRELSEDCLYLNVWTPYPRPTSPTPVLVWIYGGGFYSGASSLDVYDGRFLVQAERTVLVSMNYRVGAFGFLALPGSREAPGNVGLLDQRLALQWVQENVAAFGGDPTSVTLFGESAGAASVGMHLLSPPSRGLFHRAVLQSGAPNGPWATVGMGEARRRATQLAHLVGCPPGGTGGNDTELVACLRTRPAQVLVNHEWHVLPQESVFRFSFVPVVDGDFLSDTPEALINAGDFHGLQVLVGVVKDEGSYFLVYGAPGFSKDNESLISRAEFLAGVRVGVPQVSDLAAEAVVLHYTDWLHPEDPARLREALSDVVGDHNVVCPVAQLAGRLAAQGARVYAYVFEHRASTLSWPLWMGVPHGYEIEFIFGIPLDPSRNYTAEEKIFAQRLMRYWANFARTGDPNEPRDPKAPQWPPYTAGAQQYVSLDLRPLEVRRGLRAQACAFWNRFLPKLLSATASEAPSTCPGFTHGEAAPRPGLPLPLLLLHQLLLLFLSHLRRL
Assay: Inhibition of HsAChE (spectrophotometric, ATCh iodide substrate)
Conditions: K/Na-phosphate buffer pH 7.5, 25 °C; mean ± SEM, n = 3
Source text: In these experiments, human (Homo sapiens) erythrocyte AChE (HsAChE), equine (Equus caballus) serum BChE (EcBChE), and porcine (Sus scrofa) liver CES (SsCES) were used because of their ready availability, relatively low cost, and high sequence homology of EcBChE and SsCES to the corresponding human enzymes. Enzymes, substrates, and reference compounds were sourced from Sigma-Aldrich (St. Louis, MO, USA). […]
pIC50: −log10 of the molar value.
Classification field: enter Criterion met for pIC50 values not below 5, Criterion not met for values below it.

Record excerpt, results attached:
C=C[c-]1cccc1.[Fe+2].c1ccc(-[c-]2cccc2)nc1 | Criterion not met
[Fe+2].c1cc[cH-]c1.c1ccc2nc(-[c-]3cccc3)ccc2c1 | Criterion not met
C=C(C)[c-]1cccc1.[Fe+2].c1ccc(-c2cccc(-[c-]3cccc3)n2)nc1 | Criterion met
C=C(C)[c-]1cccc1.[Fe+2].c1ccc2nc(-[c-]3cccc3)ccc2c1 | Criterion met

[in] Threshold query (pIC50 >= 5) on `C=C[c-]1cccc1.[Fe+2].c1ccc2nc(-[c-]3cccc3)ccc2c1`
[out] Criterion met

[in] Threshold query (pIC50 >= 5) on `C=C[c-]1cccc1.[Fe+2].c1ccc(-c2cccc(-[c-]3cccc3)n2)nc1`
[out] Criterion met

====

target: human β-amyloid (1–42) (HsAβ42) (Homo sapiens, UniProt P05067); construct: purchased AnaSpec Inc; assay: Inhibition of HsAβ42 self-aggregation (thioflavin T fluorescence); format: biochemical; conditions: HsAβ42 50 µM, compound 100 µM, 24 h, 37 °C; n.a. = not active
Sequence (P05067 672-713 limits assumed): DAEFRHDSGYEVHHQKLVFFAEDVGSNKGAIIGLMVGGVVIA
Classification field: enter Fulfilled for HsAβ42 self-Aggregation Inhibition, (%) values not below 70%, Not fulfilled for values below it.

Record excerpt, results attached:
[Fe+2].c1cc[c-](-c2ccnnc2)c1.c1cc[cH-]c1 | Not fulfilled
C=C(C)[c-]1cccc1.[Fe+2].c1ccc2c(-[c-]3cccc3)c3ccccc3nc2c1 | Fulfilled
C=C(C)[c-]1cccc1.[Fe+2].c1cc[c-](-c2ccnnc2)c1 | Not fulfilled
C=C[c-]1cccc1.[Fe+2].c1ccc(-[c-]2cccc2)nc1 | Fulfilled
C=C(C)[c-]1cccc1.[Fe+2].c1ccc(-[c-]2cccc2)nc1 | Not fulfilled

[in] Threshold query (HsAβ42 self-Aggregation Inhibition, (%) >= 70%) on `C=C(C)[c-]1cccc1.[Fe+2].c1ccc(-c2cccc(-[c-]3cccc3)n2)nc1`
[out] Fulfilled

[in] Threshold query (HsAβ42 self-Aggregation Inhibition, (%) >= 70%) on `C=C[c-]1cccc1.[Fe+2].c1ccc(-c2cccc(-[c-]3cccc3)n2)nc1`
[out] Fulfilled

====

assay: Ferric reducing antioxidant power (FRAP) assay; conditions: Water; Table 4;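 note: same experimental FRAP TE values reprinted in Table 4 beside calculated BDE and IP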
Entries and their Exp. FRAP, TE
Reply with the value as a number alone.

Below: 2 compounds and their reported Exp. FRAP, TE.
[Fe+2].c1cc[cH-]c1.c1cc[cH-]c1 | 0.79
C=C(C)[c-]1cccc1.[Fe+2].c1ccc2c(-[c-]3cccc3)c3ccccc3[nH+]c2c1 | 2.45

Let us move to another entry and its Exp. FRAP, TE.
[in] # get_value(readout='Exp. FRAP, TE', item= `C=C[c-]1cccc1.[Fe+2].c1ccc2[nH+]c(-[c-]3cccc3)ccc2c1` )
[out] 2.21

From: paper PMC12736194
